Experiment: qHTS assay to identify small molecule antagonists of the sonic hedgehog signaling (Shh) pathway - cell viability counter screen (AID 1259367); further: nearly all actives have a fitted effect of over 55% in size
Details: NIH/3T3 Gli1-Luc viability, CellTiter-Fluor, 24 h; series mostly up to 92.4 µM
Results filed as inconclusive are left out. The source made the active and inactive calls. The call rests on the fitted dose curve; in most records, active means well fitted cell-killing curve with a large enough effect in the repeat runs; inconclusive means weak or mixed curves, or effect the other way; inactive means no such curve, though single readings can be large or run the other way.
Your answer must be one of the following: active, inactive

[Q] What outcome does the record of this test show for "Cc1ccc(CCl)cc1" ?
[A] inactive

[Q] Hey, what did the test say about "CCCCCCCCCCBr" ?
[A] inactive

[Q] Just curious, what result did "O=[N+]([O-])O.O=[N+]([O-])O.[Cd]" get here?
[A] active

[Q] # fetch the recorded call for "CCCCN(CCCC)C(=S)[S-].CCCCN(CCCC)C(=S)[S-].[Zn+2]" here
[A] active

[Q] Tell me the assay call for "FC(F)(F)c1cccc(C2=CCN(CCc3ccc4ccccc4c3)CC2)c1" please.
[A] inactive

[Q] Recorded call for "CN(C)CCc1c[nH]c2ccc(O)cc12" ?
[A] active

[Q] // param item: "O=C(NC(=O)c1c(F)cccc1F)Nc1cc(Cl)c(OC(F)(F)C(F)F)c(Cl)c1" ; yields the recorded call
[A] inactive

[Q] // param item: "O=C(Cl)c1ccc(Cl)cc1" ; yields the recorded call
[A] inactive

[Q] Record lookup: outcome of this test for "CC(C)CBr" ?
[A] inactive

[Q] Given CCCCCCCCCCCCCC[P+](CCCCCC)(CCCCCC)CCCCCC (tested in a mixture with another compound) , state the outcome it received in this test.
[A] active

[Q] Fill in: this test's call for "O=C(Nc1ccc2[nH]ccc2c1)c1cc2cc(F)ccc2n1Cc1cccc(F)c1" is ___
[A] active

[Q] Recorded test outcome, item CC(Cl)CN(C)C (configuration not stated)
[A] inactive

----------
Experiment: qHTS assay to identify small molecule agonists of the androgen receptor (AR) signaling pathway in the presence of an antagonist - cell viability counter screen (AID 1259379); further: nearly all actives have a fitted effect of over 25% in size
Details: MDA-kb2 viability, CellTiter-Fluor, 16 h; series mostly up to 92.4 µM
Records with an inconclusive call do not appear. The source made the active and inactive calls. The call rests on the fitted dose curve; in most records, active means well fitted cell-killing curve with a large enough effect in the repeat runs; inconclusive means weak or mixed curves, or effect the other way; inactive means flat fitted curve, though single readings scatter.
Write down one outcome, taken from active, inactive

[Q] Given "[Cl][Sn]([c]1ccccc1)([c]1ccccc1)[c]1ccccc1" , state the outcome it received in this test.
[A] active

[Q] Record request — test call for "COc1ccc(N)cc1N"
[A] inactive

[Q] Give the logged outcome of this assay for the following compound: "ClC(Cl)=C(Cl)Cl"
[A] inactive

[Q] Assay outcome for "Nc1ccccc1C(=O)OC/C=C/c1ccccc1" : what was it?
[A] inactive

[Q] Hi team, can someone confirm the assay call for "CC[C@H](C)[C@H]1O[C@]2(C=C[C@@H]1C)C[C@@H]1C[C@@H](C/C=C(\C)[C@@H](O[C@H]3C[C@H](OC)[C@@H](O[C@H]4C[C@H](OC)[C@@H](O)[C@H](C)O4)[C@H](C)O3)[C@@H](C)/C=C/C=C3\CO[C@@H]4[C@H](O)C(C)=C[C@@H](C(=O)O1)[C@]34O)O2" ?
[A] active

[Q] What was the test verdict on CCOC(=O)OC1=C(c2cc(C)ccc2C)C(=O)NC12CCC(OC)CC2 (stereo unspecified) ?
[A] inactive

[Q] Recorded call for "CCCCCCCCCCCCCCCCCCn1cc[n+](C)c1" ?
[A] active

[Q] Please let me know the test result on file for "CCCSP(=O)(OCC)SCCC" .
[A] inactive

[Q] Record lookup: outcome of this test for ClC1=C(Cl)C2(Cl)C3C(Cl)C(Cl)CC3C1(Cl)C2(Cl)Cl (stereo unspecified) ?
[A] inactive

[Q] How did this test come out for "COCC(=O)N(c1c(C)cccc1C)[C@H](C)C(=O)OC" ?
[A] inactive

[Q] # outcome recorded in this test, key = "C=CCOC(N)=O"
[A] inactive

[Q] Which result was noted for this compound in the test: "CCOP(=S)(OCC)SCCS(=O)(=O)CC"
[A] inactive

[Q] Hello, I am checking results. What call was entered for "O=[N+]([O-])c1cc(Cl)ccc1Cl" ?
[A] inactive

[Q] Which outcome was entered for the compound "C[C@]12CC[C@H]3[C@@H](CCC4=CC(=O)CC[C@@]43C)[C@@H]1CC[C@@H]2O" in this test?
[A] inactive

[Q] Could you kindly confirm the outcome this assay logged for "Cc1cc(Cl)ccc1O[C@H](C)C(=O)O" ?
[A] inactive

[Q] Returns: the outcome recorded for "O=C(CCCN1CCC2(CC1)C(=O)NCN2c1ccccc1)c1ccc(F)cc1" in this assay.
[A] inactive

[Q] Test call, this compound: "CCc1nn(C)c(C(=O)NCc2ccc(C(C)(C)C)cc2)c1Cl"
[A] active

[Q] Hey, what did the test say about "Oc1cccc(-c2ccccc2)c1" ?
[A] inactive

[Q] Hi, do you know how "O=C(O)COc1nc(Cl)c(Cl)cc1Cl" came out in this test?
[A] inactive

[Q] Check the results log: what was the call for CCC(C)c1cc([N+](=O)[O-])cc([N+](=O)[O-])c1OC(=O)C=C(C)C (stereo unspecified) ?
[A] active

[Q] # outcome recorded in this test, key = CC(Cl)CN(C)C (stereo unspecified)
[A] inactive

[Q] Please indicate how the test categorized "[CH3][Hg][Cl]" .
[A] active

[Q] For C1CCC2CCCCC2C1 (stereo unspecified) , which call appears in the assay record?
[A] inactive

[Q] Dear colleague, could you share the recorded outcome for "CCCCCCCCCCCCCCCC[n+]1ccccc1" when you have a moment?
[A] active

[Q] For "Cn1[nH]nnc1=S" , what call appears in the results of this test?
[A] inactive

[Q] Outcome? "N#Cc1ccccc1N"
[A] inactive

[Q] Could you kindly confirm the outcome this assay logged for "O=c1[nH]c2ccccc2n1C1CCN(CCCC(c2ccc(F)cc2)c2ccc(F)cc2)CC1" ?
[A] active

[Q] Hi, do you know how "CCCCCCCCCCCCBr" came out in this test?
[A] inactive

[Q] Dear all, I need the recorded test outcome for "Clc1ccc(C(Cl)(Cl)Cl)c(Cl)c1" , thank you.
[A] inactive

[Q] For this compound, state the assay outcome: "ClC1=C(Cl)[C@]2(Cl)[C@@H]3[C@@H](Cl)[C@H](Cl)C[C@@H]3[C@@]1(Cl)C2(Cl)Cl"
[A] inactive

[Q] Any idea what this test logged for c1ccc(OCC2CO2)cc1 (stereo unspecified) ?
[A] inactive

[Q] Identify the outcome logged in this assay for the compound shown: "C=CC(=O)OCCCCOC(=O)C=C"
[A] active

[Q] Which outcome was entered for the compound CC(C)(COCC1CO1)COCC1CO1 (stereo unspecified) in this test?
[A] inactive

[Q] Which outcome was entered for the compound "ClC1=C(Cl)[C@]2(Cl)[C@H]3[C@H]([C@H]4C=C[C@H]3C4)[C@@]1(Cl)C2(Cl)Cl" in this test?
[A] inactive

[Q] Status in this test for "CCN(CC)c1c([N+](=O)[O-])cc(C(F)(F)F)c(N)c1[N+](=O)[O-]" ?
[A] inactive

[Q] Check the results log: what was the call for "Cc1cc(C)cc(OP(=O)(Oc2cc(C)cc(C)c2)Oc2cc(C)cc(C)c2)c1" ?
[A] inactive

[Q] Please share the test call associated with "Fc1cccc(Cl)c1CCl" .
[A] inactive

[Q] Dear colleague, could you share the recorded outcome for "CCN(CC)C(=S)[S-].CCN(CC)C(=S)[S-].[Zn+2]" when you have a moment?
[A] active

[Q] What was the test verdict on "Oc1ccc2ccc3cccc4ccc1c2c34" ?
[A] inactive

[Q] What classification did "BrCBr" end up with in this test?
[A] inactive

[Q] Tell me the recorded outcome of this test for "COP(=O)(CCC(=O)NCO)OC" .
[A] inactive

[Q] Please indicate how the test categorized "N#Cc1c(-c2ccc(Cl)cc2)[nH]c(C(F)(F)F)c1Br" .
[A] active

[Q] Query: recorded result category for OC(Cc1ccccc1Cl)(Cn1cncn1)C1(Cl)CC1 (stereo unspecified) in this test
[A] inactive

[Q] I would be grateful if you could indicate the recorded call for CCOc1cc(C(C)(C)C)ccc1C1COC(c2c(F)cccc2F)=N1 (stereo unspecified) .
[A] inactive

[Q] Fill in: this test's call for "O=C(Cl)c1ccc(Cl)cc1" is ___
[A] inactive

[Q] GET /call?item= CC(C)[C@H](C(=O)OC(C#N)c1cccc(Oc2ccccc2)c1)c1ccc(OC(F)F)cc1 (stereo partly specified) returns the recorded outcome of this test.
[A] inactive

[Q] Outcome? "Oc1ccccc1Br"
[A] inactive

[Q] For this compound, state the assay outcome: "CCOCn1c(-c2ccc(Cl)cc2)c(C#N)c(Br)c1C(F)(F)F"
[A] active

[Q] Hey, what did the test say about c1ccc2c(c1)OCC(C1=NCCN1)O2 (stereo unspecified) ?
[A] inactive

[Q] Could you check what this test reported for "CS(=O)(=O)c1ccc(C(=O)C2C(=O)CCCC2=O)c([N+](=O)[O-])c1" ?
[A] inactive

[Q] Test call, this compound: "CC(C)(C)OO"
[A] inactive
